Biological target: Steryl-sulfatase (Homo sapiens)
Sequence (whole entry): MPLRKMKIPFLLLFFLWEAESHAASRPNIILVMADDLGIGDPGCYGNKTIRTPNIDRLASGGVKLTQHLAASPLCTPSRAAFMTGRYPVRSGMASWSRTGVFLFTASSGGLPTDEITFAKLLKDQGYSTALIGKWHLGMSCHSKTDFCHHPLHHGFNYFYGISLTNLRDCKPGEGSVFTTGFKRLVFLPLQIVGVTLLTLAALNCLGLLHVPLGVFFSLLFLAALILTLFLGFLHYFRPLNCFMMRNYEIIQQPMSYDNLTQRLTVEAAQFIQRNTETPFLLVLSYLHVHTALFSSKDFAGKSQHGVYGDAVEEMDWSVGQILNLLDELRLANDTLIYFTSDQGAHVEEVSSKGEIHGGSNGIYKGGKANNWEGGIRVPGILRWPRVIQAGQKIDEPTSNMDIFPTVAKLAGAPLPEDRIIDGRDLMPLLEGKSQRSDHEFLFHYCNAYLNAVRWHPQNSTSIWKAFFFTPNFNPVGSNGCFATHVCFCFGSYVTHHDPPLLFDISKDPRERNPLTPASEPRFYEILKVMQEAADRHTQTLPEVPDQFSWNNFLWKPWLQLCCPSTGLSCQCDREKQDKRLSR
Experiment: Tested for inhibition of estrone sulfatase in MCF-7 breast cancer cells using 2 nM substrate concentration at 10 uM
Assay type: cell-based
Settings: MCF7
endpoint: inhibition

Known inhibition results, listed for orientation:
{"columns": ["molecule", "inhibition"],
 "data": [
  ["CN(C)S(=O)(=O)Oc1ccc2c(c1)CCC1[C@@H]2CC[C@]2(C)C(=O)CC[C@@H]12 (single isomer, unassigned)", "90%"],
  ["CSP(=O)(O)Oc1ccc2c(c1)CC[C@@H]1[C@@H]2CC[C@]2(C)C(=O)CC[C@@H]12", "96%"],
  ["NS(=O)(=O)Oc1ccc2c(c1)CCCC2", "97%"]
]}

Batch request: inhibition for each of the following molecules.
1. CNS(=O)(=O)Oc1ccc2c(c1)CCCC2
2. CNS(=O)(=O)Oc1ccc2c(c1)CCC1[C@@H]2CC[C@]2(C)C(=O)CC[C@@H]12 (single isomer, unassigned)
3. C[C@]12CC[C@@H]3c4ccc(OS(N)(=O)=O)cc4CCC3[C@@H]1CCC2=O (single isomer, unassigned) [EMATE]

Response line:
1: 22%; 2: 93%; 3: > 99%
